Overview of recorded pEC50 for various compounds
# Test system: genotype 1a-H77 subgenomic replicon cell line
# test_summary: microbe, parasite or virus in culture
# Format: cell-based, HCV
# condition_label: Hepatitis C virus, read-out: EC50 1a
pEC50: −log10 of the molar value.

The cases that follow already have their pEC50 on record.
compound	pEC50
COc1c(/C=C/c2ccc(NS(C)(=O)=O)cc2C(N)=O)cc(-n2ccc(=O)[nH]c2=O)cc1C(C)(C)C	7.00 to 8.00
CC(C)(C)c1cc(N2CCC(=O)NC2=O)cc(NC(=O)c2ccc(CS(C)(=O)=O)cc2)c1O	< 6.00
CC(C)(C)c1cc(N2CCC(=O)NC2=O)cc(C(=O)Nc2ccc(OS(C)(=O)=O)cc2)c1O	< 6.00
COc1c(-c2ccsc2)cc(-n2ccc(=O)[nH]c2=O)cc1-c1ccc2c(c1)CC=C2CNS(C)(=O)=O	6.00 to 7.00
COc1c(C#Cc2ccc(NS(C)(=O)=O)c(F)c2Cl)cc(N2CCC(=O)NC2=O)cc1C(C)(C)C	7.00 to 8.00

Documented pEC50 of COc1c(N2Cc3ccc(NS(C)(=O)=O)cc3C2)cc(-n2ccc(=O)[nH]c2=O)cc1C(C)(C)C : 6.00 to 7.00

Just so you know, measured pEC50 for COc1c(C(=O)Nc2ccc(NS(=O)(=O)CC(F)(F)F)cc2)cc(N2CCC(=O)NC2=O)cc1C(C)(C)C came out at < 6.00

Form: compound = COc1c(C#Cc2ccc(NS(C)(=O)=O)cn2)cc(-n2ccc(=O)[nH]c2=O)cc1C(C)(C)C ; pEC50 = 7.00 to 8.00

In plain terms, COc1ccc(OC)c(S(=O)(=O)Nc2ccc(NC(=O)c3cc(N4CCC(=O)NC4=O)cc(C(C)(C)C)c3OC)cc2)c1 has a documented pEC50 of < 6.00

Recorded result, COc1c(C#Cc2cccc(NS(C)(=O)=O)c2)cc(N2CCC(=O)NC2=O)cc1C(C)(C)C , pEC50: < 6.00

Measured pEC50, COc1c(/C=C/c2ccc(NS(C)(=O)=O)cc2C(=O)O)cc(-n2ccc(=O)[nH]c2=O)cc1C(C)(C)C : 7.00 to 8.00

Recorded pEC50 (compound COc1c(/C=C/c2ccc(NS(C)(=O)=O)cc2)cc(N2CCC(=O)NC2=O)cc1C(C)(C)C ): 7.00 to 8.00

pEC50 reading for CC(C)(C)c1cc(N2CCC(=O)NC2=O)cc(C(=O)Nc2ccc(S(C)(=O)=O)cc2)c1O : < 6.00

###

# tested_target: HCV polymerase 1A (Δ21 NS5B, H77) (Hepatitis C virus genotype 1a)
# Construct: 20 to 50 nM Δ21 NS5B
# test_summary: biochemical
# condition_label: IC50 1a
pIC50: −log10 of the molar value.
Attribute: pIC50

// worked examples, pIC50 included
compound_smiles	parameter_measured	result
COc1c(-c2cccc(/C=N/NS(C)(=O)=O)c2)cc(-n2ccc(=O)[nH]c2=O)cc1C(C)(C)C	pIC50	6.00 to 7.00
CC(C)(C)c1cc(N2CCC(=O)NC2=O)cc(C(=O)Nc2ccc(NS(=O)(=O)c3ccccc3)cc2)c1O	pIC50	7.00 to 8.00
COc1c(C(=O)Nc2ccc(N)cc2)cc(N2CCC(=O)NC2=O)cc1C(C)(C)C	pIC50	< 6.00
COc1c(C#Cc2ccc(NS(C)(=O)=O)c(F)c2Cl)cc(N2CCC(=O)NC2=O)cc1C(C)(C)C	pIC50	> 8.00
COc1c(C(=O)Cc2ccc(NS(C)(=O)=O)cc2)cc(N2CCC(=O)NC2=O)cc1C(C)(C)C	pIC50	7.00 to 8.00
CC(C)(C)c1cc(N2CCC(=O)NC2=O)cc(C(=O)Nc2ccc(CC(=O)O)cc2)c1O	pIC50	< 6.00

Please find the next compound below.
Reported pIC50 ( COc1c(C#Cc2cc(F)c(NS(C)(=O)=O)cc2C(F)(F)F)cc(-n2ccc(=O)[nH]c2=O)cc1C(C)(C)C ) = 7.00 to 8.00

###

# IC50 values compiled below
# tested_target: HCV polymerase 1A (Δ21 NS5B, H77) (Hepatitis C virus genotype 1a, UniProt P27958)
# Construct: 20 to 50 nM Δ21 NS5B
# Sequence (P27958 2421-2990, stated change not applied): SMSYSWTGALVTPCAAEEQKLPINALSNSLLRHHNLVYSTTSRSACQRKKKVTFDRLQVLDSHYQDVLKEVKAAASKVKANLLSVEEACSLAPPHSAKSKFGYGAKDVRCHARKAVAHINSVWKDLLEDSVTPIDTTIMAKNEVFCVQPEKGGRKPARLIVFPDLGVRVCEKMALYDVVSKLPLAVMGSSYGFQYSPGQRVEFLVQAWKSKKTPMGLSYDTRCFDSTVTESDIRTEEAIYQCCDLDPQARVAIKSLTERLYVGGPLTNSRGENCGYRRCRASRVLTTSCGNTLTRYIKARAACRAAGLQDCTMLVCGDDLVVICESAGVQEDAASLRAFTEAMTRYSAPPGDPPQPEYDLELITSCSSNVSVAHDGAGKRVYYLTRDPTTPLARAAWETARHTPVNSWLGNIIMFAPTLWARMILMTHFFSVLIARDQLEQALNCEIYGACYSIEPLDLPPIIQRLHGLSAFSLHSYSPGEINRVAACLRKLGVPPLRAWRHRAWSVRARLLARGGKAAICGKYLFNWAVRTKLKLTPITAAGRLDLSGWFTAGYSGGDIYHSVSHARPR
# test_summary: biochemical
# condition_label: IC50 1a

compound	IC50
COc1c(-c2ccc(NS(C)(=O)=O)cc2)cc(-n2ccc(=O)[nH]c2=O)cc1C(C)(C)C	100 to 1000 nM
CC(C)(C)c1cc(N2CCC(=O)NC2=O)cc(C(=O)Nc2ccc(NS(=O)(=O)CC(F)(F)F)cc2)c1O	100 to 1000 nM
CC(C)(C)OC(=O)NC1CCN(Cc2cc(N3CCC(=O)NC3=O)cc(C(C)(C)C)c2O)C1 (stereo not shown)	> 1000 nM
COc1c(C#Cc2ncc(NS(C)(=O)=O)cc2C)cc(N2CCC(=O)NC2=O)cc1C(C)(C)C	< 10 nM
COc1c(C#Cc2ccc(NS(C)(=O)=O)c3ccccc23)cc(-n2ccc(=O)[nH]c2=O)cc1C(C)(C)C	10 to 100 nM
COc1c(-c2ccc3c(c2)CC[C@H]3CNS(C)(=O)=O)cc(-n2ccc(=O)[nH]c2=O)cc1C(C)(C)C (single isomer, unassigned)	< 10 nM

Consider now this further compound.
Form field IC50, entry CC(C)(C)c1cc(N2CCC(=O)NC2=O)cc(C(=O)Nc2ccc(S(C)(=O)=O)cc2)c1O : > 1000 nM

###

# System: genotype 1a-H77 subgenomic replicon cell line
# test_summary: microbe, parasite or virus in culture
# Assay type: cell-based, HCV
# condition_label: Hepatitis C virus, read-out: EC50 1a
pEC50: −log10 of the molar value.
parameter_measured: pEC50

Below: 2 compounds and their reported pEC50.
compound	pEC50
COc1c(-c2cccc(/C=N/NS(C)(=O)=O)c2)cc(N2CCC(=O)NC2=O)cc1C(C)(C)C [IA-L0-1.7]	< 6.00
COc1c(-c2ccc(/C=N/NS(C)(=O)=O)cc2)cc(N2CCC(=O)NC2=O)cc1C(C)(C)C [IA-L0-1.1]	6.00 to 7.00

# context switch: different compound, same pEC50
// recorded pEC50 for COc1c(-c2ccc(/C=N/NS(C)(=O)=O)c(F)c2)cc(N2CCC(=O)NC2=O)cc1C(C)(C)C [IA-L0-1.4] : 6.00 to 7.00

###

# System: genotype 1a-H77 subgenomic replicon cell line
# test_summary: microbe, parasite or virus in culture
# Assay type: cell-based, HCV
# condition_label: Hepatitis C virus, read-out: EC50 1a
pEC50: −log10 of the molar value.
parameter_measured: pEC50

Some solved entries appear below for comparison.
compound	pEC50
COc1ccc(-c2cc(N3CCC(=O)NC3=O)cc(C(C)(C)C)c2OC)cc1/C=N/NS(C)(=O)=O	< 6.00
COc1c(/C=C/c2ccc(NS(C)(=O)=O)cc2)cc(-n2cc(Cl)c(=O)[nH]c2=O)cc1C(C)(C)C	7.00 to 8.00
CC(C)(C)c1cc(N2CCC(=O)NC2=O)cc(C(=O)Nc2ccc(NS(=O)(=O)Cc3ccccc3)cc2)c1O	< 6.00
CC(C)(C)OC(=O)N(Cc1csc(NC(=O)c2cc(N3CCC(=O)NC3=O)cc(C(C)(C)C)c2O)c1)S(C)(=O)=O	< 6.00
COc1c(-c2ccc3nc(NS(C)(=O)=O)ccc3c2)cc(-n2ccc(=O)[nH]c2=O)cc1C(C)(C)C	7.00 to 8.00

Value of pEC50 reported for the compound COc1c(-c2ccc3nc(Cl)sc3c2)cc(-n2ccc(=O)[nH]c2=O)cc1C(C)(C)C is < 6.00

# pEC50 (compound: COc1c(-c2ccc3nc(N)sc3c2)cc(-n2ccc(=O)[nH]c2=O)cc1C(C)(C)C ) is 6.00 to 7.00

The compound listed as COc1ccc2cc(-c3cc(-n4ccc(=O)[nH]c4=O)cc(C(C)(C)C)c3OC)ccc2c1 has a reported pEC50 of < 6.00

Reported pEC50 ( COc1c(/C=C/c2ccc(NS(C)(=O)=O)cc2C=NO)cc(-n2ccc(=O)[nH]c2=O)cc1C(C)(C)C ) = 7.00 to 8.00

pEC50 measured on CCCC(=O)OCN(c1ccc(NC(=O)c2cc(N3CCC(=O)NC3=O)cc(C(C)(C)C)c2OC)cc1)S(C)(=O)=O = 6.00 to 7.00

Entry COc1c(/C=C/c2ccc(NS(C)(=O)=O)cc2COC(C)C)cc(-n2ccc(=O)[nH]c2=O)cc1C(C)(C)C — recorded pEC50 = 7.00 to 8.00

###

# tested_target: HCV polymerase 1B (Δ21 NS5B, BK) (Hepatitis C virus genotype 1b, UniProt P26663)
# Construct: 20 to 50 nM Δ21 NS5B
# Sequence (P26663 2420-2989, stated change not applied): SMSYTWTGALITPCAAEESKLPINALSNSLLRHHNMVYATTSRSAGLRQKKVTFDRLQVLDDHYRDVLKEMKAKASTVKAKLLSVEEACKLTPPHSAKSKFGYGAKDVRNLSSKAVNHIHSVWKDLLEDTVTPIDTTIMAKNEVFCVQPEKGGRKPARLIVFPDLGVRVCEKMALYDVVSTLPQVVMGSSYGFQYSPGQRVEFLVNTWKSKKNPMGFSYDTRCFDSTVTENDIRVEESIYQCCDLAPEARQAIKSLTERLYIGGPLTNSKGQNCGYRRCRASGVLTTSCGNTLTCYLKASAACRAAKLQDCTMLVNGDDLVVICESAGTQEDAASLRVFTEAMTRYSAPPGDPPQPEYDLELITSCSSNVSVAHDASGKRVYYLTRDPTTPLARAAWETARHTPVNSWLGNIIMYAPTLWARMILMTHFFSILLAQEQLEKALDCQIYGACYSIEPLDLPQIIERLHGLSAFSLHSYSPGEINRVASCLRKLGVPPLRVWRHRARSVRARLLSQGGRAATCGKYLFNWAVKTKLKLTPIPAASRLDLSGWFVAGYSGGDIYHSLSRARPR
# test_summary: biochemical
# condition_label: read-out: IC50 1b; HCV polymerase 1b
# Experimental: HCV Polymerase Inhibition Assay Either two-fold serial dilutions (fractional inhibition assay) or a narrower range of dilutions spanning the IC50 of the inhibitor (tight binding assay) of the inhibitors were incubated with 20 mM Tris-Cl pH 7.4, 2 mM MnCl2, 1 mM dithiothreitol, 1 mM ethylene diamine tetraacetic acid (EDTA), 60 to 125 μM GTP and 20 to 50 nM Δ21 NS5B (HCV Strain 1B (BK, Genbank accession number M58335, or H77, Genbank accession number AF011751)) for 15 min at room temperature. […]
parameter_measured: IC50

Please fill in: IC50 reported for COc1c(/C=C\c2ccc(NS(C)(=O)=O)cc2)cc(N2CCC(=O)NC2=O)cc1C(C)(C)C = 10 to 100 nM
